Listed here: items and their measured MIC.
Test system: Staphylococcus aureus
Assay: Antibacterial activity against methicillin-resistant Staphylococcus aureus ATCC43300 incubated for 24 hrs by CLSI-based broth microdilution method
Type: functional

COMPOUND	RELATION OPERATOR	MIC (µg/mL)
NC(=O)c1c(F)ccc(OCC2CC(c3ccco3)=NO2)c1F (configuration not stated)	>	64
CCCCc1ccc(C2=NOC(COc3ccc(F)c(C(N)=O)c3F)C2)cc1 (configuration not stated)	=	0.25
CCCOc1ccc(C2CC(COc3ccc(F)c(C(N)=O)c3F)=NO2)cc1 (configuration not stated)	=	64
CC(C)(C)c1ccc(C2=NOC(COc3ccc(F)c(C(N)=O)c3F)C2)cc1 (configuration not stated)	=	2
COc1cccc(C2CC(COc3ccc(F)c(C(N)=O)c3F)=NO2)c1 (configuration not stated)	>	64
COc1ccc(C2=NOC(COc3ccc(F)c(C(N)=O)c3F)C2)cc1 (configuration not stated)	>	64
COc1ccccc1C1=NOC(COc2ccc(F)c(C(N)=O)c2F)C1 (configuration not stated)	>	64
Cc1cccc(C2=NOC(COc3ccc(F)c(C(N)=O)c3F)C2)c1 (configuration not stated)	=	16
CCc1ccc(C2CC(COc3ccc(F)c(C(N)=O)c3F)=NO2)cc1 (configuration not stated)	=	64
CCOc1ccc(C2=NOC(COc3ccc(F)c(C(N)=O)c3F)C2)cc1 (configuration not stated)	=	64
CCCCc1ccc(C2=NO[C@@H](COc3ccc(F)c(C(N)=O)c3F)C2)cc1	=	2
NC(=O)c1c(F)ccc(OCC2CC(c3ccc(Cl)c(Cl)c3)=NO2)c1F (configuration not stated)	>	64
Cc1ccc(C2=NOC(COc3ccc(F)c(C(N)=O)c3F)C2)cc1 (configuration not stated)	=	32
CC(C)(C)c1ccc(C2CC(COc3ccc(F)c(C(N)=O)c3F)=NO2)cc1 (configuration not stated)	=	32
CN(C)c1ccc(C2=NOC(COc3ccc(F)c(C(N)=O)c3F)C2)cc1 (configuration not stated)	>	64
CC(C)c1ccc(C2CC(COc3ccc(F)c(C(N)=O)c3F)=NO2)cc1 (configuration not stated)	=	64
NC(=O)c1c(F)ccc(OCC2CC(c3cccc(Cl)c3)=NO2)c1F (configuration not stated)	=	32
NC(=O)c1c(F)ccc(OCC2CC(c3ccc(Cl)cc3)=NO2)c1F (configuration not stated)	=	32
NC(=O)c1c(F)ccc(OCC2=NOC(c3cccc(Cl)c3)C2)c1F (configuration not stated)	>	64
CCOc1cccc(C2CC(COc3ccc(F)c(C(N)=O)c3F)=NO2)c1 (configuration not stated)	>	64
NC(=O)c1c(F)ccc(OCC2=NOC(c3ccc(F)cc3)C2)c1F (configuration not stated)	>	64
NC(=O)c1c(F)ccc(OCC2CC(c3ccccc3Cl)=NO2)c1F (configuration not stated)	>	64

====

Test system: Staphylococcus aureus
Experiment: Antibacterial activity against methicillin-resistant Staphylococcus aureus ATCC43300 incubated for 24 hrs by CLSI-based broth microdilution method
Format: functional
Quick rule for you: MIC under 30 µg/mL gets YES, anything else gets NO.

COMPOUND	GROUP LABEL
NC(=O)c1c(F)ccc(OCC2=NOC(c3ccc(Cl)cc3)C2)c1F (stereo not drawn)	NO
CCOc1cccc(C2=NOC(COc3ccc(F)c(C(N)=O)c3F)C2)c1 (stereo not drawn)	NO
CCCCc1ccc(C2=NO[C@H](COc3ccc(F)c(C(N)=O)c3F)C2)cc1	YES
CC[C@H]1OC(=O)[C@H](C)[C@@H](O[C@H]2C[C@@](C)(OC)[C@@H](O)[C@H](C)O2)[C@H](C)[C@@H](O[C@@H]2O[C@H](C)C[C@H](N(C)C)[C@H]2O)[C@](C)(OC)C[C@@H](C)C(=O)[C@H](C)[C@@H](O)[C@]1(C)O	NO
NC(=O)c1c(F)ccc(OCC2CC(c3ccc(Br)cc3)=NO2)c1F (stereo not drawn)	NO
CC[C@H]1OC(=O)[C@H](C)[C@@H](O[C@H]2C[C@@](C)(OC)[C@@H](O)[C@H](C)O2)[C@H](C)[C@@H](O[C@@H]2O[C@H](C)C[C@H](N(C)C)[C@H]2O)[C@](C)(O)C[C@@H](C)C(=O)[C@H](C)[C@@H](O)[C@]1(C)O	NO
NC(=O)c1c(F)ccc(OCC2CC(c3ccc(F)cc3)=NO2)c1F (stereo not drawn)	NO
NC(=O)c1c(F)ccc(OCC2CC(c3ccc4c(c3)OCO4)=NO2)c1F (stereo not drawn)	NO
CC(C)c1ccc(C2=NOC(COc3ccc(F)c(C(N)=O)c3F)C2)cc1 (stereo not drawn)	YES
Cc1ccc(C2CC(COc3ccc(F)c(C(N)=O)c3F)=NO2)cc1 (stereo not drawn)	NO
NC(=O)c1c(F)ccc(OCC2=NOC(c3ccc(Cl)c(Cl)c3)C2)c1F (stereo not drawn)	NO
CCCOc1cccc(C2=NOC(COc3ccc(F)c(C(N)=O)c3F)C2)c1 (stereo not drawn)	YES
CCCCc1ccc(C2CC(COc3ccc(F)c(C(N)=O)c3F)=NO2)cc1 (stereo not drawn)	YES
NC(=O)c1c(F)ccc(OCc2nc3cc(Cl)cnc3s2)c1F	YES
NC(=O)c1c(F)ccc(OCC2=NOC(c3ccccc3Cl)C2)c1F (stereo not drawn)	NO
CCCOc1ccc(C2=NOC(COc3ccc(F)c(C(N)=O)c3F)C2)cc1 (stereo not drawn)	NO
N#Cc1ccc(C2=NOC(COc3ccc(F)c(C(N)=O)c3F)C2)cc1 (stereo not drawn)	NO
COc1cccc(C2=NOC(COc3ccc(F)c(C(N)=O)c3F)C2)c1 (stereo not drawn)	NO
CCOc1ccccc1C1CC(COc2ccc(F)c(C(N)=O)c2F)=NO1 (stereo not drawn)	NO
NC(=O)c1c(F)ccc(OCC2=NOC(c3ccc(Cl)cc3Cl)C2)c1F (stereo not drawn)	YES
CCOc1ccc(C2CC(COc3ccc(F)c(C(N)=O)c3F)=NO2)cc1 (stereo not drawn)	NO
NC(=O)c1c(F)ccc(OCC2CC(c3ccccc3)=NO2)c1F (stereo not drawn)	NO
NC(=O)c1c(F)ccc(OCC2CC(c3ccc(Cl)cc3Cl)=NO2)c1F (stereo not drawn)	NO
CCc1ccc(C2=NOC(COc3ccc(F)c(C(N)=O)c3F)C2)cc1 (stereo not drawn)	YES
NC(=O)c1c(F)ccc(OCC2=NOC(c3ccc(Br)cc3)C2)c1F (stereo not drawn)	NO
Cc1cccc(C2CC(COc3ccc(F)c(C(N)=O)c3F)=NO2)c1 (stereo not drawn)	NO
CCCCCc1ccc(C2=NOC(COc3ccc(F)c(C(N)=O)c3F)C2)cc1 (stereo not drawn)	NO
NC(=O)c1c(F)ccc(OCC2CC(c3ccc(C4CCCCC4)cc3)=NO2)c1F (stereo not drawn)	NO
